- TARGET_DESC: T1, mouse serum albumin (mouse, UniProt P07724 25-608)
- T1 construct: also called MSA
- METHOD_SUMMARY: BLI (Octet), biotinylated albumin on SA sensor, pH 6.0
EXPERIMENTAL_READOUT: Kd (nM)

[[record]]
binder = "HSA-18 (designed binder, also called HSA-18 monomer) MIPRGLSEAKPATPEIQEIVDKVKPQLEEKTNETYGKLEAVQYKTQVLADWWQAKWPHSTNYYIKVRAGDNKYMHLKVFNGPYKVHQSSGGADRVLTGYQVDKNKDDELTGFHHHHHH"
experimental_readout = "Kd"
experimental_value = 618

[[record]]
binder = "HSA-20 (designed binder) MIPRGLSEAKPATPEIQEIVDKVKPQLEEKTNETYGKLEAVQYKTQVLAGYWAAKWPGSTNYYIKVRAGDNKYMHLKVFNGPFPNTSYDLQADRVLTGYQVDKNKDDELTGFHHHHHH"
experimental_readout = "Kd"
experimental_value = 511

[[record]]
binder = "HSA-31 (designed binder) MIPRGLSEAKPATPEIQEIVDKVKPQLEEKTNETYGKLEAVQYKTQVLAVWGPEYQHQSTNYYIKVRAGDNKYMHLKVFNGPNAGWPLVPEADRVLTGYQVDKNKDDELTGFHHHHHH"
experimental_readout = "Kd"
experimental_value = 3.7


P. HSA-22 (designed binder) MIPRGLSEAKPATPEIQEIVDKVKPQLEEKTNETYGKLEAVQYKTQVLANWYQQRWPGSTNYYIKVRAGDNKYMHLKVFNGPWHNYGESSGADRVLTGYQVDKNKDDELTGFHHHHHH
Q. HSA-37 (designed binder) MIPRGLSEAKPATPEIQEIVDKVKPQLEEKTNETYGKLEAVQYKTQVLAGFWASKWPGSTNYYIKVRAGDNKYMHLKVFNGPFTAVSKKDAADRVLTGYQVDKNKDDELTGFHHHHHH
R. HSA-41 (designed binder, also called HSA-41 parent; HSA-41 AH parent) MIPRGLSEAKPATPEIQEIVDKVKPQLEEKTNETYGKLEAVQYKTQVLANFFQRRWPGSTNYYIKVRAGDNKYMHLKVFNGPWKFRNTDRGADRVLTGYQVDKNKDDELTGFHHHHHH
With regard to Kd, arrange the entries in ascending order, please. I'd appreciate it if you listed the labels in the requested order.
R, P, Q
